Target: T1, Human Nectin-4 (human, UniProt Q96NY8 32-349, limits assumed)
T1 construct: Protein immobilised on the SPR chip; also called target protein
T1 sequence: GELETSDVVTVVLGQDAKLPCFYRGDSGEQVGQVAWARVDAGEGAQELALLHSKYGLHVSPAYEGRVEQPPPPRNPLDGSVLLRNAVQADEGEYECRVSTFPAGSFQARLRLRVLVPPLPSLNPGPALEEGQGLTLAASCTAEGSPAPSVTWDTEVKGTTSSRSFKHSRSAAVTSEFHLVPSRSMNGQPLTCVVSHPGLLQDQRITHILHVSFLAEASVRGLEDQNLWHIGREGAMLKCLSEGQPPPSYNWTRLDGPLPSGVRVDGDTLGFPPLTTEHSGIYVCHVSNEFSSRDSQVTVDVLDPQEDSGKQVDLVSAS
Test: Table 2B (DELFIA or SPR)
Bridges are numbered along the chain shown (N, C = ends). Primed or numbered codes have the meaning given here. The star is where a group is joined. Biotin = O=C1N[C@H]2[C@H](CS[C@H]2CCCCC(=O)*)N1; PEG4″ = 4(ethylene glycol)
Measured attribute: pKd
Please report pKd as the negative decimal logarithm of the molar concentration, giving only the number.

[Q] Identify pKd associated with the binder {Biotin-PEG4″}-CEYDEEFFTALKRLRGADICDYIQASFQYLPGLCIEEILDNLGCS-OH (designed binder, disulfide 1-34, 20-44) [C195]
[A] 8.64

[Q] Consider the binder Ac-CEYDEEFFQGLKRLRGGDICYYIKKKFKKVPDLCIEEILDKLGC-OH (designed binder, disulfide 1-34, 20-44) [C33] . State its measured pKd.
[A] 8.46

[Q] Retrieve pKd measured for Ac-CEYDEEFFKGLKRLRGGDICYYIKKKFKKVPKLCIEEILEKLGC-OH (designed binder, disulfide 1-34, 20-44) [C69] and print it.
[A] 8.73

[Q] Answer with the recorded pKd of Ac-CEYDEEFFLGLKRLRGGDICYYIKKKFKKVPDLCIEEILDKLGC-OH (designed binder, disulfide 1-34, 20-44) [C34] only.
[A] 8.50

[Q] Indicate its recorded pKd; the binder in question is {Biotin-PEG4″}-CEYDEEFFTALKRLRGDDICEYIQASFQYLPGLCIEEILDNLGCS-OH (designed binder, disulfide 1-34, 20-44) [C181]
[A] 8.52
